test_summary: Bleomycin model of pulmonary fibrosis: right lung hydroxyproline content, left lung fibrosis score
Format: in vivo, Wistar rats
experimental_conditions: Wistar, rat, plasma, inhaled or intranasal; Bleomycin + IT 3.0 mg/kg; read-out: Plasma AUCO-2 hrs
parameter_measured: AUC (ng·h/mL)
Give bare numbers, in ng·h/mL.

stdin: Field request: AUC | item: Cc1ccc(=O)n(-c2ccccc2)c1 [pirfenidone, 5-methyl-1-phenyl-2-(1H)-pyridone]
stdout: 7700

====

test_summary: Pharmacokinetics and tissue distribution (lung, plasma, heart, kidney) of co-solvent formulations, bolus intratracheal aerosol
Format: in vivo, Sprague-Dawley rats
experimental_conditions: Sprague-Dawley, rat, lung, other: intratracheal bolus aerosol (nebulizing catheter), 4 mg/kg, Group 2; 0.1 hr; about 4 mg/kg pirfenidone IT bolus aerosol; read-out: Analyte in lung tissue, Mean
parameter_measured: concentration at 0.1 h

stdin: State the recorded concentration at 0.1 h for this entry: Cc1ccc(=O)n(-c2ccccc2)c1
stdout: 5980 ng/g

====

test_summary: Pharmacokinetics and tissue distribution (lung, plasma, heart, kidney) of co-solvent formulations, bolus intratracheal aerosol
Assay type: in vivo, Sprague-Dawley rats
experimental_conditions: Sprague-Dawley, rat, lung, other: intratracheal bolus aerosol (nebulizing catheter), 4 mg/kg, Group 3; 0.1 hr; about 4 mg/kg pirfenidone IT bolus aerosol; read-out: Analyte in lung tissue, Mean
parameter_measured: concentration at 0.1 h (ng/g)
Answers are plain numbers, in ng/g.

stdin: Record request: concentration at 0.1 h value, item Cc1ccc(=O)n(-c2ccccc2)c1
stdout: 7340

====

test_summary: Aqueous formulation observations: solubility, salt addition, taste, dissolution time
Format: physicochemical
experimental_conditions: aqueous solution, aqueous buffer; across a pH range of about 4.0 to about 8.0
parameter_measured: solubility

stdin: # get_value(readout='solubility', item= Cc1ccc(=O)n(-c2ccccc2)c1 [pirfenidone, 5-methyl-1-phenyl-2-(1H)-pyridone] )
stdout: 17 mg/mL

====

test_summary: Pharmacokinetics and tissue distribution (lung, plasma, heart, kidney) of co-solvent formulations, bolus intratracheal aerosol
Type: in vivo, Sprague-Dawley rats
experimental_conditions: Sprague-Dawley, rat, lung, other: intratracheal bolus aerosol (nebulizing catheter), 4 mg/kg, Group 4; 0.0667 hr; about 4 mg/kg pirfenidone IT bolus aerosol; read-out: Analyte in lung tissue, Mean
parameter_measured: concentration at 4 min (ng/g)
Numbers only, in ng/g.

stdin: Consider the compound Cc1ccc(=O)n(-c2ccccc2)c1 and give its measured concentration at 4 min.
stdout: 7770

====

test_summary: Extended-duration intratracheal and oral pharmacokinetic study
Type: in vivo, Wistar rats
experimental_conditions: oral gavage 10 mg/kg
parameter_measured: Lung Tissue AUC(0-2 hr) (µg·h/g)
Answers are plain numbers, in µg·h/g.

stdin: What does the data say about its Lung Tissue AUC(0-2 hr)? Entry: Cc1ccc(=O)n(-c2ccccc2)c1
stdout: 4.9

====

test_summary: Extended-duration intratracheal and oral pharmacokinetic study
Type: in vivo, Wistar rats
experimental_conditions: oral gavage 30 mg/kg
parameter_measured: Lung Tissue AUC(0-2 hr)

stdin: What does the data say about its Lung Tissue AUC(0-2 hr)? Entry: Cc1ccc(=O)n(-c2ccccc2)c1
stdout: 13.5 µg·h/g

====

test_summary: Pharmacokinetics and tissue distribution (lung, plasma, heart, kidney) of co-solvent formulations, bolus intratracheal aerosol
Type: in vivo, Sprague-Dawley rats
experimental_conditions: Sprague-Dawley, rat, lung, other: intratracheal bolus aerosol (nebulizing catheter), 4 mg/kg, Group 6; 0.167 hr; about 4 mg/kg pirfenidone IT bolus aerosol; read-out: Analyte in lung tissue, Mean
Experimental: Selected formulations were prepared for pharmacokinetic analysis following aerosol delivery to rat lung. […] Formulations prepared for this study are outlined in Table 9. […] The sample was agitated until completely dissolved. […] Filtered samples were analyzed by HPLC.
parameter_measured: concentration at 0.167 h (ng/g)
One number for each entry, in ng/g.

stdin: Query: concentration at 0.167 h; subject: Cc1ccc(=O)n(-c2ccccc2)c1
stdout: 5170
